- Assay details: Lipophilicity, logKw of compound in methanol and water buffer at pH 2.3 by HPLC-UV analysis
- Assay type: physicochemical
Readout label: logKw
Numbers only.

These solved cases illustrate the format of a correct answer.
[[record]]
chemical_structure = "c1ccc2c(-c3ccc4nonc4c3)c[nH]c2c1"
recorded_result = 4.1

[[record]]
chemical_structure = "c1ccc2c(-c3cnc4n[se]nc4c3)c[nH]c2c1"
recorded_result = 2.9

[[record]]
chemical_structure = "c1ccc2c(-c3ccc4nsnc4c3)c[nH]c2c1"
recorded_result = 4

[[record]]
chemical_structure = "c1ccc2c(-c3ccc4n[se]nc4c3)c[nH]c2c1"
recorded_result = 3.5


We now examine a further molecule.
Recorded result, c1ccc2c(-c3cnc4nsnc4c3)c[nH]c2c1 , logKw: 3.3
